# Test system: Human primary T cells
# assay_text: IL-2 ELISA, Human Primary T Cell, Anti-CD3+CD28+ (Example 3)
# Assay type: cell-based
# assay_context: Homo sapiens, T-cell, 24 h, anti-CD3+CD28 stimulation
Would you kindly list pIC50 for each of these molecules?
Would you please state pIC50, meaning minus log10 of the concentration in mol/L, as a bare number?

Write pIC50 of COc1ccc(Nc2ncc(Cl)c(NC3CC(C)(C)N(C)C(C)(C)C3)n2)cc1OC(F)F ; system used: Human primary T cells
7.34

Please tell me the measured pIC50 for CN1C(C)(C)CC(Nc2nc(Nc3cccc(Br)c3)ncc2F)CC1(C)C ; system: Human primary T cells.
7.10

Specify pIC50 for Cc1cccc2sc(Nc3ncc(F)c(NC4CC(C)(C)N(C)C(C)(C)C4)n3)nc12 , system Human primary T cells.
6.05

Provide pIC50, recorded with Human primary T cells, of Cc1cc(Nc2ncc(F)c(NC3CC(C)(C)N(C)C(C)(C)C3)n2)ccc1-c1ccncc1
6.44
